Data provenance: patent US4017622A

# System: Escherichia coli K-12
# test.description: In vitro antibacterial activity (MIC, serial dilution), Escherichia coli
# stated.conditions: nutrient broth, pH 7.0; 37° C for 48 hours
Measured minimum inhibitory concentration (MIC), Escherichia coli K-12 values are reported for all entries that follow.
Please give only the number in your answer, with no unit.

Inquiry: Fill in: minimum inhibitory concentration (MIC), Escherichia coli K-12 of "O=C(O)c1cn(Cc2ccccc2)c2cc(N3CCNCC3)ccc2c1=O" is ___
Reply text: 1

Inquiry: Entry under review: "CCn1cc(C(=O)O)c(=O)c2cnc(N3CCN(C)CC3)cc21" . Reported minimum inhibitory concentration (MIC), Escherichia coli K-12?
Reply text: 3

Inquiry: Find the recorded minimum inhibitory concentration (MIC), Escherichia coli K-12 belonging to "CCn1cc(C(=O)O)c(=O)c2ccc(N3CCNCC3)nc21" and report it.
Reply text: 3

Inquiry: minimum inhibitory concentration (MIC), Escherichia coli K-12 lookup needed for "CCn1cc(C(=O)O)c(=O)c2ccc(N3CCN(C)CC3)cc21" , thanks.
Reply text: 1

Inquiry: # minimum inhibitory concentration (MIC), Escherichia coli K-12 lookup, item "C=Cn1cc(C(=O)O)c(=O)c2ccc(N3CCNCC3)nc21"
Reply text: 1

Inquiry: Query (molecule): "CCn1cc(C(=O)O)c(=O)c2ccc(N3CCNCC3)cc21" ; field requested: minimum inhibitory concentration (MIC), Escherichia coli K-12
Reply text: 1

* * *

# test.description: Acute toxicity in mice
# stated.conditions: mouse, in vivo; male ddY-S mice; iv; observation 7 days
measurement.kind: LD50 at 168 h

Inquiry: Look up LD50 at 168 h for this compound: CCn1cc(C(=O)O)c(=O)c2cnc(N3CCCC3)nc21 [PA, reference compound]
Reply text: 268 mg/kg

* * *

# System: Salmonella typhimurium S-9
# test.description: In vivo efficacy against systemic infection with Salmonella typhimurium in mice
# stated.conditions: Salmonella enterica, 336 h, male ddY-S mice, po, twice a day for 4 days, observation 14 days
measurement.kind: ED50 (mg/kg)
Numeric only. Scale: mg/kg

[[record]]
compound = "C=Cn1cc(C(=O)O)c(=O)c2ccc(N3CCNCC3)nc21 [compound 1424]"
measurement_kind = "ED50"
measured_result = 22.9


Continue with the next compound.
Inquiry: Requested field: ED50. Item: C=Cn1cc(C(=O)O)c(=O)c2ccc(N3CCN(CC)CC3)cc21 [compound 1557]
Reply text: 11.5

* * *

# test.description: Acute toxicity in mice
# stated.conditions: mouse, in vivo, iv
Each entry below carries its reported LD50 at 168 h.

[[record]]
structure_notation = "C=Cn1cc(C(=O)O)c(=O)c2ccc(N3CCN(C)CC3)cc21"
measurement_kind = "LD50 at 168 h"
measured_result = "> 500 mg/kg"


Inquiry: Would you kindly share the measured LD50 at 168 h for "CCn1cc(C(=O)O)c(=O)c2ccc(N3CCN(C)CC3)cc21" ?
Reply text: > 500 mg/kg

Inquiry: Given "C=Cn1cc(C(=O)O)c(=O)c2ccc(N3CCN(CC)CC3)cc21" , state its recorded LD50 at 168 h.
Reply text: 354 mg/kg

* * *

# System: Salmonella typhimurium S-9
# test.description: In vivo efficacy against systemic infection with Salmonella typhimurium in mice
# stated.conditions: Salmonella enterica, 336 h, male ddY-S mice, po, twice a day for 4 days, observation 14 days
measurement.kind: ED50 (mg/kg)
Response body: numeric value in mg/kg, unit text excluded.

Inquiry: What measured ED50 is associated with "C=Cn1cc(C(=O)O)c(=O)c2ccc(N3CCN(C)CC3)cc21" on Salmonella typhimurium S-9?
Reply text: 8.8

Inquiry: Requested read-out ED50, target or system Salmonella typhimurium S-9, entry "CCn1cc(C(=O)O)c(=O)c2cnc(N3CCNCC3)cc21"
Reply text: 70.7

Inquiry: Recall the recorded ED50 for "CCn1cc(C(=O)O)c(=O)c2cnc(N3CCN(C)CC3)cc21" with Salmonella typhimurium S-9 and state it.
Reply text: 23.9

Inquiry: Please provide the recorded ED50 for "CCn1cc(C(=O)O)c(=O)c2ccc(N3CCN(C)CC3)cc21" , tested on Salmonella typhimurium S-9.
Reply text: 13.6
